# system.under.test: human CYP11B1 (Homo sapiens, UniProt P15538)
# Construct: expressed in transfected cells; host or cells: murine adrenocortical cancer cell line Y1 (Y1-hsCyp11B1, stably transfected)
# Sequence (P15538 25-503): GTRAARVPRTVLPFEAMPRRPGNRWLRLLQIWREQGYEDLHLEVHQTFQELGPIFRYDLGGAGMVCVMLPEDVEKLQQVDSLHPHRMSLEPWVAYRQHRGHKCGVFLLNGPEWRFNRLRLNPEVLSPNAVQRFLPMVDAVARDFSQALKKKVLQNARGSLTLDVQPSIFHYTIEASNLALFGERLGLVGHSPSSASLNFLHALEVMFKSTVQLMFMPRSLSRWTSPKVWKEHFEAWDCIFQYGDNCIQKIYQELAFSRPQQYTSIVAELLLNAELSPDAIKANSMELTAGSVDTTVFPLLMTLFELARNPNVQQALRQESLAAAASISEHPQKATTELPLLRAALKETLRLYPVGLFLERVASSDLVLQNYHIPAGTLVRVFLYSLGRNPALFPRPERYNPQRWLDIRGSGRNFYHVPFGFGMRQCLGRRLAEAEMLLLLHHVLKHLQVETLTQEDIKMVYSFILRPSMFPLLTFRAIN
# measurement.notes: Inhibition of CYP11B1 in stably transfected Y1-hsCyp11B1 cells
# Type: cell-based
# measurement.context: stably transfected Y1-hsCyp11B1 cells, substrate deoxycortisol (1 µM); mean of at least three experiments in duplicates; read-out: IC50 CYP11B1
property.measured: IC50 (nM)
Return type: number; implicit unit nM.

Exercise: Return IC50 for the following compound: C[C@H](c1ccc(I)cc1)n1cncc1C(=O)N1CCC1
Key: 3.2

###

Reported values of pIC50 for individual entries
# system.under.test: human CYP11B1 (Homo sapiens)
# Construct: expressed in transfected cells; host or cells: murine adrenocortical cancer cell line Y1 (Y1-hsCyp11B1, stably transfected)
# measurement.notes: Inhibition of CYP11B1 in stably transfected Y1-hsCyp11B1 cells
# Type: cell-based
Conceptually, pIC50 converts a concentration in mol/L into minus its log10.

> print(dat)
                                   compound  endpoint.result
1  C[C@H](c1ccc(I)cc1)n1cncc1C(=O)OC1CCOC1 (some centres unmarked)             8.28

Here is another compound to look at.
Exercise: Return pIC50 for the following compound: C[C@H](c1ccc(I)cc1)n1cncc1C(=O)OCC(F)F
Key: 9.52

###

# measurement.notes: Metabolic inactivation by human liver microsomes in vitro (radio-HPLC)
# Assay type: in vitro ADME
# measurement.context: human, pH 7.2; 125I-labeled compound, liver microsomes 0.2 mg/ml, NADPH, 37 °C; mean ± S.D.; read-out: In vitro T1/2 in human liver microsomes
property.measured: half-life at 0.17 MBq/ml (min)
Return type: number; implicit unit min.

> print(dat)
                                   molecule         property.measured  endpoint.result
1  C[C@H](c1ccc(I)cc1)n1cncc1C(=O)OC1CCOC1 (some centres unmarked)  half-life at 0.17 MBq/ml              7.4

Exercise: Return half-life at 0.17 MBq/ml for the following molecule: C[C@H](c1ccc(I)cc1)n1cncc1C(=O)OCC(F)F
Key: 7.5

###

# system.under.test: human CYP11B2 (Homo sapiens, UniProt P19099)
# Construct: expressed in transfected cells; host or cells: murine adrenocortical cancer cell line Y1 (Y1-hsCyp11B2, stably transfected)
# Sequence (P19099 25-503): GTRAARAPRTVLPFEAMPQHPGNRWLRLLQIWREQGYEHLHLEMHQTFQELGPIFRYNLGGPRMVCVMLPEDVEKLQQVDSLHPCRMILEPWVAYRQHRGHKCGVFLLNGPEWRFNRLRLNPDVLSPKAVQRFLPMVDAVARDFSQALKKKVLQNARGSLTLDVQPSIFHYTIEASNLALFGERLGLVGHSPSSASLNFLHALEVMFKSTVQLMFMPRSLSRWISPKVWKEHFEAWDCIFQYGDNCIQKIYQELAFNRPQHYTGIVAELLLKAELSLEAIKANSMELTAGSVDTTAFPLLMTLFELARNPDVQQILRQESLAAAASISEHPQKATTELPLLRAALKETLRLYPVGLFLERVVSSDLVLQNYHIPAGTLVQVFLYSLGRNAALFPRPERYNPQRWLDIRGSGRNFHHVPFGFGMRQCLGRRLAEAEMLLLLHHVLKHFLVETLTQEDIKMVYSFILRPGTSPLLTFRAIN
# measurement.notes: Inhibition of CYP11B2 in stably transfected Y1-hsCyp11B2 cells
# Format: cell-based
# measurement.context: stably transfected Y1-hsCyp11B2 cells, substrate 11-deoxycorticosterone (1 µM); mean of at least three experiments in duplicates; read-out: IC50 CYP11B2
property.measured: IC50 (nM)
Return type: number; implicit unit nM.

Exercise: Return IC50 for the following molecule: C[C@H](c1ccc(I)cc1)n1cncc1C(=O)N1CCC1 [Compound 5]
Key: 1.2

###

# system.under.test: human CYP11B2 (Homo sapiens)
# Construct: expressed in transfected cells; host or cells: murine adrenocortical cancer cell line Y1 (Y1-hsCyp11B2, stably transfected)
# measurement.notes: Inhibition of CYP11B2 in stably transfected Y1-hsCyp11B2 cells
# Type: cell-based
property.measured: pIC50
Conceptually, pIC50 converts a concentration in mol/L into minus its log10.

Field: example entries. Status: answers known.
> print(dat)
                                   molecule  property.measured  endpoint.result
1  C[C@H](c1ccc(I)cc1)n1cncc1C(=O)OC1CCOC1 (stereo partly drawn)              pIC50             8.54
2          C[C@H](c1ccc(I)cc1)n1cncc1C(=O)O              pIC50             6.21

Here is another molecule to look at.
Exercise: Return pIC50 for the following molecule: C[C@H](c1ccc(I)cc1)n1cncc1C(=O)OCC(F)F
Key: 8.35
